- assayedSystem: recombinant human mPGES-1 (Homo sapiens)
- Construct: made in house; host or cells: Rosetta E. coli (microsomal/membrane fraction)
- Sequence (O14684 whole entry): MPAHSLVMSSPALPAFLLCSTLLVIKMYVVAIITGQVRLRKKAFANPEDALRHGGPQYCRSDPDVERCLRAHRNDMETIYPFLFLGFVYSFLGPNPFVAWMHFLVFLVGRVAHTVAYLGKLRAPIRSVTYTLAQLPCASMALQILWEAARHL
- assayProtocol: mPGES-1 inhibition test (microsomes, HTRF detection of PGE2)
- Assay type: biochemical
recordedMetric: inhibition at 10 µM
Please state the number and follow it with the unit.

(Q) Look up inhibition at 10 µM of O=C(Nc1cc(C2CC2)ccn1)c1cc2[nH]c(Nc3c(Cl)cccc3Cl)nc2cn1 and report it.
(A) 98%

(Q) Look up inhibition at 10 µM of CC1(C)CCC(NC(=O)c2cc3nc(Nc4c(Cl)cccc4Cl)[nH]c3cn2)CC1 and report it.
(A) 100%

(Q) Look up inhibition at 10 µM of Cn1c(Nc2c(Cl)cncc2Cl)nc2cc(C(=O)NCc3ncccc3C(F)(F)F)ncc21 and report it.
(A) 95%

(Q) Look up inhibition at 10 µM of CC(C)(C)c1ccnc(NC(=O)c2cc3[nH]c(Nc4c(Cl)cccc4Cl)nc3cn2)c1 and report it.
(A) 100%

(Q) Look up inhibition at 10 µM of Cc1cc(NC(=O)c2cc3[nH]c(Nc4c(Cl)cccc4Cl)nc3cn2)ncc1Cl and report it.
(A) 100%

(Q) Look up inhibition at 10 µM of O=C(NCC(F)(F)C(F)(F)C(F)(F)C(F)(F)C(F)(F)C(F)(F)C(F)(F)F)c1cc2[nH]c(Nc3c(Cl)cccc3Cl)nc2cn1 and report it.
(A) 100%

(Q) Look up inhibition at 10 µM of O=C(NCc1ccccc1C(F)(F)F)c1cc2[nH]c(Nc3c(Cl)cccc3Cl)nc2cn1 and report it.
(A) 97%

(Q) Look up inhibition at 10 µM of Cn1c(Nc2c(F)cccc2Cl)nc2cc(C(=O)Nc3cc(C(F)(F)F)ccn3)ncc21 and report it.
(A) 100%

(Q) Look up inhibition at 10 µM of Cc1cc(C(F)(F)F)cc(NC(=O)c2cc3[nH]c(Nc4c(Cl)cncc4Cl)nc3cn2)n1 and report it.
(A) 99%

(Q) Look up inhibition at 10 µM of Cc1cc(C)nc(NC(=O)c2cc3[nH]c(Nc4c(Cl)cccc4Cl)nc3cn2)c1 and report it.
(A) 100%

(Q) Look up inhibition at 10 µM of O=C(Nc1ccc(C(F)(F)F)cn1)c1cc2[nH]c(Nc3c(Cl)cccc3Cl)nc2cn1 and report it.
(A) 100%

(Q) Look up inhibition at 10 µM of Cn1c(Nc2c(Cl)cccc2Cl)nc2cc(C(=O)NC3CCCCC3)ncc21 and report it.
(A) 100%

(Q) Look up inhibition at 10 µM of Cn1c(Nc2c(F)cccc2Cl)nc2cc(C(=O)NC3CCCCC3)ncc21 and report it.
(A) 100%

(Q) Look up inhibition at 10 µM of Cn1c(Nc2c(Cl)cccc2Cl)nc2cc(C(=O)Nc3cc(C(F)(F)F)ccn3)ncc21 and report it.
(A) 100%

(Q) Look up inhibition at 10 µM of Cn1c(Nc2c(Cl)cccc2Cl)nc2cc(C(=O)Nc3ccc(Br)cc3)ncc21 and report it.
(A) 100%

(Q) Look up inhibition at 10 µM of O=C(Nc1cc(C(F)(F)F)ccn1)c1cc2[nH]c(Nc3c(Cl)cccc3Cl)nc2cn1 and report it.
(A) 100%

(Q) Look up inhibition at 10 µM of Cn1c(Nc2c(F)cccc2Cl)nc2cc(C(=O)NC3CCC(C)(C)CC3)ncc21 and report it.
(A) 100%

(Q) Look up inhibition at 10 µM of O=C(Nc1cc(C(F)(F)F)cc(C2CC2)n1)c1cc2[nH]c(Nc3c(Cl)cncc3Cl)nc2cn1 and report it.
(A) 100%

(Q) Look up inhibition at 10 µM of Cn1c(Nc2c(Cl)cccc2Cl)nc2cc(C(=O)NC3CCC4(CC3)CC4)ncc21 and report it.
(A) 100%

(Q) Look up inhibition at 10 µM of Cn1c(Nc2c(Cl)cncc2Cl)nc2cc(C(=O)Nc3cc(C(F)(F)F)ccn3)ncc21 and report it.
(A) 98%

(Q) Look up inhibition at 10 µM of O=C(Nc1ccc(Br)cc1)c1cc2[nH]c(Nc3c(Cl)cncc3Cl)nc2cn1 and report it.
(A) 100%

(Q) Look up inhibition at 10 µM of Cc1cnc(NC(=O)c2cc3nc(Nc4c(Cl)cccc4Cl)n(C)c3cn2)cc1C and report it.
(A) 100%

(Q) Look up inhibition at 10 µM of Cc1cnc(NC(=O)c2cc3[nH]c(Nc4c(Cl)cccc4Cl)nc3cn2)cc1C and report it.
(A) 100%

(Q) Look up inhibition at 10 µM of O=C(Nc1cc(C(F)(F)F)ccn1)c1cc2[nH]c(Nc3c(Cl)cccc3C(F)(F)F)nc2cn1 and report it.
(A) 98%

(Q) Look up inhibition at 10 µM of CN(C)c1cc(C(F)(F)F)cc(NC(=O)c2cc3[nH]c(Nc4c(Cl)cncc4Cl)nc3cn2)n1 and report it.
(A) 100%

(Q) Look up inhibition at 10 µM of Cn1c(Nc2cnccc2C(F)(F)F)nc2cc(C(=O)Nc3cc(C(F)(F)F)ccn3)ncc21 and report it.
(A) 99%

(Q) Look up inhibition at 10 µM of O=C(Nc1cc(C(F)(F)F)ccn1)c1cc2[nH]c(Nc3c(F)cc(F)cc3Cl)nc2cn1 and report it.
(A) 100%

(Q) Look up inhibition at 10 µM of Cn1c(Nc2c(F)cccc2Cl)nc2cc(C(=O)NC3CCC4(CC3)CC4)ncc21 and report it.
(A) 100%

(Q) Look up inhibition at 10 µM of Cn1c(Nc2c(F)cccc2Cl)nc2cc(C(=O)Nc3ccc(Br)cc3)ncc21 and report it.
(A) 100%

(Q) Look up inhibition at 10 µM of O=C(Nc1ccc(C2CC2)cn1)c1cc2[nH]c(Nc3c(Cl)cccc3Cl)nc2cn1 and report it.
(A) 100%

(Q) Look up inhibition at 10 µM of O=C(NC1CCCCC1)c1cc2[nH]c(Nc3c(Cl)cccc3Cl)nc2cn1 and report it.
(A) 100%

(Q) Look up inhibition at 10 µM of O=C(Nc1cc(C(F)(F)F)cc(Cl)n1)c1cc2[nH]c(Nc3c(Cl)cncc3Cl)nc2cn1 and report it.
(A) 98%
